Could you please report measured TGI for the items listed next?
# Tested on: MALME-3M melanoma
# METHOD SUMMARY: NCI tumour cell line growth inhibition, 48 h
Answers are plain numbers, in µM.

The following compounds have reported results that may help.
COMPOUND: NS(=O)(=O)c1nnc(NC(=O)N(c2ccccc2)c2ccccc2)s1
MEASURED TARGET: MALME-3M melanoma
TGI, µM: 62.5

COMPOUND: C[n+]1cc2cc(O)c(O)cc2c2ccc3cc(O)c(O)cc3c21
MEASURED TARGET: MALME-3M melanoma
TGI, µM: 12.9

COMPOUND: Nc1nc2c(c3cnccc13)C(c1ccc(Cl)c(Cl)c1)Cc1cnccc1-2 (configuration not stated)
MEASURED TARGET: MALME-3M melanoma
TGI, µM: 18.6

COMPOUND: CC1=CC2C3(C)C(C)(C(C)=CP3(=O)c3c(C(C)C)cc(C(C)C)cc3C(C)C)C1P2(=O)c1c(C(C)C)cc(C(C)C)cc1C(C)C (configuration not stated)
MEASURED TARGET: MALME-3M melanoma
TGI, µM: 5.79

COMPOUND: CCOC1C=CC(=O)C(CO)O1 (configuration not stated)
MEASURED TARGET: MALME-3M melanoma
TGI, µM: 25.8

// for each compound in input: emit TGI
1. N#Cc1nc2c(S(=O)(=O)c3ccc(Cl)cc3)c(N)n(Nc3cccc(Cl)c3)c2nc1C#N
2. CN(C)CCCC1(c2ccc(F)cc2)OCc2cc(-c3cccc4[nH]ccc34)ccc21 (configuration not stated)
3. CCn1cc(C(=O)O)c(=O)c2cc(F)c(N3CCN(S(=O)(=O)c4cccc5ccccc45)CC3)cc21
4. CC(=O)c1ccc(Oc2c3ccccc3nc3ccccc23)cc1

[0.33, 3.01, 7.83, 27.2]

====

# Tested on: MCF7 breast
# METHOD SUMMARY: NCI tumour cell line growth inhibition, 48 h
MEASURE NAME: log10 TGI (log10 of the value in µM)
Plainly stated, the numbers are log10 of TGI given in µM.

The following compounds have reported results that may help.
COMPOUND: COc1ccc2c(N)ncc(C#Cc3cc(C(=O)Nc4ccc(CN5CCN(C)CC5)c(C(F)(F)F)c4)cnc3C)c2c1
MEASURED TARGET: MCF7 breast
log10 TGI: 0.42
--
COMPOUND: FC(F)(F)Oc1cccc(-c2cc(NCCCCCCNc3cc(-c4cccc(OC(F)(F)F)c4)nc4ccc(N5CCCC5)cc34)c3cc(N4CCCC4)ccc3n2)c1
MEASURED TARGET: MCF7 breast
log10 TGI: 0.54

// for each compound in input: emit log10 TGI
1. Cn1c([N+](=O)[O-])cnc1C=C1C(=O)c2ccccc2C1=O
2. CCCCCCCCCCCC[N+]1(CCCCCCCCCCCC)CCCC(C)C1 (stereo not given)
3. O=CC(I)=C(c1ccccc1)c1ccccc1
4. CCCCCOc1ccc(/C=N/Nc2cc(C)nc3ccc(Cl)cc23)cc1

1. 1.21
2. 0.08
3. 1.50
4. 0.53

====

# Test system: HOP-92 NSCLC
# METHOD SUMMARY: NCI tumour cell line growth inhibition, 48 h; in the data active = GI50 below about 0.43 µM; inactive = the rest
Answer with one of the outcomes given here: class 1 = active, class 0 = inactive

# example entries with known answers
COMPOUND: COc1ccc2sc3c(NCCCN)nc4ccccc4c3c(=O)c2c1
ANSWER LABEL: class 0

COMPOUND: Cc1ccc(O)cc1Nc1ccnc2ccc(S(C)(=O)=O)cc12
ANSWER LABEL: class 1

COMPOUND: N#CC1c2ccccc2C=CN1C(=O)CCCl (stereo not given)
ANSWER LABEL: class 0

COMPOUND: CCn1cc(C(=O)O)c(=O)c2cc(F)c(N3CCN(S(=O)(=O)c4cccc5ccccc45)CC3)cc21
ANSWER LABEL: class 0

COMPOUND: Cc1ccc2c(-c3ccnc(Nc4ccc5c(c4)OCCO5)n3)c(-c3ccc(C(F)(F)F)cc3)nn2n1
ANSWER LABEL: class 0

Fill in: this test's call for `COc1ccc(OC)c(NCC(=O)n2nc(/C=C\c3ccc(O)c(OC)c3)cc2/C=C\c2ccc(O)c(OC)c2)c1` is ___ class 0

How about this compound: `O=C1/C(=C/c2ccc(Cl)c(Cl)c2)CN(C(=O)CCN2CCC(=NO)CC2)C/C1=C\c1ccc(Cl)c(Cl)c1` class 0

How about this compound: `CCNc1nc(O)c(/C=C2\C=Nc3ncccc32)s1` class 0

====

# Tested on: DU-145 prostate
# METHOD SUMMARY: NCI tumour cell line growth inhibition, 48 h; in the data active means GI50 below about 0.43 µM; inactive means the rest
Answer with one of the outcomes given here: active, inactive

# example entries with known answers
COMPOUND: CCNc1nc(O)c(/C=C2\C=Nc3ncccc32)s1
ANSWER LABEL: inactive
--
COMPOUND: O=C(Nc1cccc(-n2cc(-c3ccncc3)c(-c3cc(O)cc(Cl)c3)n2)c1)c1ccc(N2CCOCC2)c(C(F)(F)F)c1
ANSWER LABEL: inactive
--
COMPOUND: CCN1C(=S)N(CC)C2C1NC(=S)N2/N=C/C=C/c1ccccc1OC (centres undefined)
ANSWER LABEL: active
--
COMPOUND: COc1ccc2c(c1)C(=O)c1c-2c(Nc2ccccc2OC)nc2ccccc12
ANSWER LABEL: inactive
--
COMPOUND: O=C(OCc1ccc2c(Br)cc(Br)c(O)c2n1)c1cc2ccccc2[nH]1
ANSWER LABEL: inactive
--
COMPOUND: COc1cc2c(cc1Nc1nc(N3CCc4ccccc43)c3cc[nH]c3n1)N(C(=O)CN(C)C)CC2
ANSWER LABEL: inactive
--
COMPOUND: FC(F)(F)Oc1cccc(-c2cc(NCCCCCCNc3cc(-c4cccc(OC(F)(F)F)c4)nc4ccc(N5CCCC5)cc34)c3cc(N4CCCC4)ccc3n2)c1
ANSWER LABEL: inactive
--
COMPOUND: CN(C)CCCC1(c2ccc(F)cc2)OCc2cc(-c3cccc4[nH]ccc34)ccc21 (centres undefined)
ANSWER LABEL: inactive

Fill in: this test's call for `O=C1NC(=N[C@@H](CO)c2ccccc2)S/C1=C\c1ccc2ncccc2c1` is ___ inactive

====

# Tested on: SNB-19 CNS
# METHOD SUMMARY: NCI tumour cell line growth inhibition, 48 h
TGI vs 20 µM: at or above is rule met, below is rule not met.

COMPOUND: CN(C)CCN(c1ccccn1)c1ccccn1
ANSWER LABEL: rule met
--
COMPOUND: Cc1ccccc1-c1nc2c(N)nc(N)nc2nc1N
ANSWER LABEL: rule met
--
COMPOUND: CC(=O)c1ccc(Oc2c3ccccc3nc3ccccc23)cc1
ANSWER LABEL: rule met
--
COMPOUND: O=C1/C(=C/c2ccc(Cl)c(Cl)c2)CN(C(=O)CCN2CCC(=NO)CC2)C/C1=C\c1ccc(Cl)c(Cl)c1
ANSWER LABEL: rule not met
--
COMPOUND: COC(=O)/C=C(/C(=O)OC)C1(C)c2cc(C(=O)OC)c(C(=O)OC)c(N)c2C(=N)N1c1ccccc1 (stereo unspecified)
ANSWER LABEL: rule met

Tell me whether TGI is at least 20 µM here: COc1cc([C@@H]2c3cc4c(cc3[C@@H](NC(=O)c3ccc(C#N)cc3)C3COC(=O)[C@@H]32)OCO4)cc(OC)c1O (stereo partly specified) rule not met

How about this compound: CN(C)C(=O)C(F)(F)C(c1ccc(F)cc1)C1C(=O)N(C)C(=O)N(C)C1=O (stereo unspecified) rule met

How about this compound: `O=C1Oc2ccccc2C(=O)/C1=C1/C=C(c2ccccc2)SS1` rule met

How about this compound: O=C(ON=C1c2ccccc2C(Br)C(Br)c2ccccc21)c1ccccc1 (stereo unspecified) rule met

How about this compound: `O=c1c2ccccc2sc2c(CO)ccc(NCCN3CCCCC3)c12` rule not met

====

Could you please report measured TGI for the items listed next?
# System: NCI-H460 lung
# METHOD SUMMARY: NCI tumour cell line growth inhibition, 48 h

The following compounds have reported results that may help.
COMPOUND: CSCC[C@@H](NC(=O)[C@H](CC(C)C)NC(=O)C(Cc1cnc[nH]1)NC(=O)CNC(=O)[C@@H](NC(=O)[C@H](C)NC(=O)[C@H](Cc1c[nH]c2ccccc12)NC(=O)[C@H](CCC(N)=O)NC(=O)[C@@H](N)CC(N)=O)C(C)C)C(N)=O (some centres undefined)
MEASURED TARGET: NCI-H460 lung
TGI: > 100 µM
--
COMPOUND: COC(=O)C1C(=O)O[C@@H](c2ccc3c(c2)OCO3)C1C(=O)OC (mixture of isomers)
MEASURED TARGET: NCI-H460 lung
TGI: > 100 µM
--
COMPOUND: CC(=O)O[C@@H](c1nccn1Cc1ccccc1)[C@H]1OC(C)(C)O[C@@H]1[C@H]1COC(C)(C)O1
MEASURED TARGET: NCI-H460 lung
TGI: > 100 µM
--
COMPOUND: COc1cccc(C2c3cc4c(cc3OC(O)C2C)OCO4)c1OC (centres undefined)
MEASURED TARGET: NCI-H460 lung
TGI: 25.1 µM
--
COMPOUND: COc1cc2ccc3c4cc(OC)c(OC)cc4c[n+](C)c3c2cc1O
MEASURED TARGET: NCI-H460 lung
TGI: > 86.7 µM

// for each compound in input: emit TGI
1. COc1cc2c(cc1Nc1nc(N3CCc4ccccc43)c3cc[nH]c3n1)N(C(=O)CN(C)C)CC2
2. O=C1Oc2ccccc2C(=O)/C1=C1/C=C(c2ccccc2)SS1
3. COc1cc2nc(-c3ccc(Cl)cc3)cc(OCCCN3CCOCC3)c2cc1OC

2.79 µM
> 100 µM
> 100 µM

TGI for `S=C(Cc1ccc2c(c1)Sc1ccccc1O2)N1CCOCC1` ? > 100 µM
